B1: WEE1 (parent)
chain: INPFTPDSLLLHSSGQCRRRKRTY

Variants of: B1
assay.method.text: protein stability index of a GFP-peptide fusion (GPS, HEK-293T) (PSI 1-6); higher = more stable;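 further: lentivirally expressed fusions sorted by FACS into six bins by GFP to DsRed ratio, PSI derived from sequencing read proportions per bin multiplied by bin number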
condition.notes: c terminus: a fixed tail appended
readout.name: protein stability index

variant.identifier | observed.result
I1W | 3.83
Q16A | 3.31
L9E | 3.96
C17V | 3.22
R19K | 3.32
F4G | 4.05
N2G | 3.48
I1N | 4.17
R22S | 3.31
S14D | 3.94
R18G | 3.31
I1Q | 3.95
R18Q | 3.63
L10V | 3.81
L9H | 4.06
N2D | 4.16
P3D | 3.33
L10D | 3.9
K21C | 2.02
R22G | 3.55
G15D | 3.39
G15I | 2.92
G15H | 2.72
H12M | 3.32
R19C | 3.01
R20E | 3.15
K21M | 3.25
D7Y | 3.27
P3Y | 2.38
S14R | 3.81
L9Q | 3.68
R19Q | 3.27
P6E | 3.71
Q16G | 3.5
R22E | 3.1
D7I | 2.55
Q16L | 2.81
S13P | 3.63
F4P | 4.58
I1K | 3.62
F4I | 3.79
Y24K | 4.27
Y24V | 3.95
F4N | 4.08
G15M | 2.84
L11I | 3.97
C17Y | 3.04
